Data provenance is paper PMC6028563.

method.notes: Thermodynamic solubility measurements
Assay type: physicochemical
experimental.setup: aqueous solution, aqueous buffer, thermodynamic from solid; pH 7.4, molar value in brackets; read-out: solubility at pH 7.4
test.readout: solubility

[[record]]
compound = "CCn1c(=O)c2c(nc3n2CCN(Cc2cccc(F)c2)C3)n(C)c1=O [Compound 14g]"
recorded_measurement = "84 µM"


###

measured.target: rat A2A AR (Rattus norvegicus, UniProt P30543)
Construct: A2A ARs of rat brain striatal membrane preparations; from tissue; host or cells: rat brain striatum membranes
Sequence (P30543 whole entry): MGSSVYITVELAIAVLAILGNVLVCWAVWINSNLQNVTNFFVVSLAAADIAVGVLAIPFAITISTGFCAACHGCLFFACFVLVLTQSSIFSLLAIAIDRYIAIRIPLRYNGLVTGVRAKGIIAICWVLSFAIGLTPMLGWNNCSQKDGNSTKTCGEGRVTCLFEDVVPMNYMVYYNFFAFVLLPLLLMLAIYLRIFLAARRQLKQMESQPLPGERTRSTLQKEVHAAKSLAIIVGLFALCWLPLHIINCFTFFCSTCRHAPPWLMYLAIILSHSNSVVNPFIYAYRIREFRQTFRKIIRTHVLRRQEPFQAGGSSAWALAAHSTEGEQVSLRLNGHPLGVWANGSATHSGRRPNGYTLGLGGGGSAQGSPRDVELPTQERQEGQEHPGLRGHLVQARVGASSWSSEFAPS
method.notes: Radioligand binding assay at rat A2A AR (rat brain striatum) vs. [^3H]MSX-2
experimental.setup: rat (r); at 1,000 nM
Short version: % inhibition of radioligand binding at indicated concentration, A2A vs. [^3H]MSX-2 at least 20% is 1, less is 0.

[[record]]
compound = "CCn1c(=O)c2c(nc3n2CCN(Cc2ccc(F)c(C(F)(F)F)c2)C3)n(CC)c1=O [Compound 15i]"
group = 1

[[record]]
compound = "CCn1c(=O)c2c(nc3n2CCN(Cc2ccc(Br)cc2)C3)n(C)c1=O [Compound 14c]"
group = 1

[[record]]
compound = "Cn1c(=O)[nH]c(=O)c2c1nc1n2CCN(CCc2ccc(Cl)cc2Cl)C1 [Compound 13f]"
group = 0

[[record]]
compound = "Cn1c(=O)[nH]c(=O)c2c1nc1n2CCN(CCc2cccc(Br)c2)C1 [Compound 13d]"
group = 0

[[record]]
compound = "CCn1c(=O)c2c(nc3n2CCN(Cc2ccc(Cl)c(C(F)(F)F)c2)C3)n(CC)c1=O [Compound 15p]"
group = 1

[[record]]
compound = "CCn1c(=O)c2c(nc3n2CCN(Cc2ccc(F)c(Br)c2)C3)n(CC)c1=O [Compound 15k]"
group = 1

[[record]]
compound = "CCn1c(=O)c2c(nc3n2CCN(Cc2cc(C(F)(F)F)cc(C(F)(F)F)c2)C3)n(CC)c1=O [Compound 15q]"
group = 0

[[record]]
compound = "CCn1c(=O)c2c(nc3n2CCN(Cc2ccc(C(F)(F)F)cc2)C3)n(C)c1=O [Compound 14f]"
group = 0

